For each record, write down the corresponding metabolised at 40 min.
assay: Stability in human liver microsomes assessed as compound turnover rate measured after 40 mins; assay type: ADME, Microsome; details: read-out: Drug metabolism
# unit: % | format: bare number

[ask] Respond only with metabolised at 40 min recorded for c1cc(-c2n[nH]c3ccnc(OC4CCOCC4)c23)cc(N2CCOCC2)n1
[reply] 43

[ask] Specify measured metabolised at 40 min for CC(C)n1cc(-c2n[nH]c3ccnc(OC4CCCCC4)c23)cn1 .
[reply] 36

[ask] Determine its reported metabolised at 40 min: Cc1ccc(Nc2nccc3[nH]nc(C)c23)cc1
[reply] 13

[ask] Specify reported metabolised at 40 min for the molecule shown: Cn1cc(-c2n[nH]c3ccnc(NC4CCCCC4)c23)cn1
[reply] 21

[ask] Could you please provide reported metabolised at 40 min for Cc1n[nH]c2ccnc(OC3CCCC3)c12 ? Thanks!
[reply] 31

[ask] Provide measured metabolised at 40 min value, entry: Cc1n[nH]c2ccnc(NC3CCCCC3)c12
[reply] 7

[ask] Consider the molecule Cc1n[nH]c2ccnc(OC(C)C)c12 . State its measured metabolised at 40 min.
[reply] 2

[ask] Give metabolised at 40 min for Cc1n[nH]c2ccnc(NC3CCCC3)c12
[reply] 2

[ask] Given Cc1n[nH]c2ccnc(OC3CCCCC3)c12 , respond with its metabolised at 40 min.
[reply] 25

[ask] State its metabolised at 40 min for this molecule: CC(C)n1cc(-c2n[nH]c3ccnc(NC4CCCCC4)c23)cn1
[reply] 23

[ask] Indicate the recorded metabolised at 40 min value for this molecule: Cc1n[nH]c2ccnc(O[C@@H]3CCOC3)c12
[reply] 0

[ask] Identify measured metabolised at 40 min associated with CC[C@H](C)Nc1nccc2[nH]nc(C)c12
[reply] 6

[ask] Specify reported metabolised at 40 min for the molecule shown: CC(C)n1cc(-c2n[nH]c3ccnc(OC4CCOCC4)c23)cn1
[reply] 21

====

Kindly state inhibition for each of the entries shown.
target: Mitogen-activated protein kinase 1 (Homo sapiens); test: Inhibition of ERK2 (unknown origin) at 10 uM relative to control
Please state the figure in %; there is no need to write the unit.

[ask] Fetch value of inhibition on Mitogen-activated protein kinase 1 (Homo sapiens) for Cc1n[nH]c2ccnc(Nc3ccccc3F)c12 .
[reply] 77

[ask] Provide inhibition, recorded with Mitogen-activated protein kinase 1 (Homo sapiens), of Cc1n[nH]c2ccnc(NC3CCCCC3)c12
[reply] 29

[ask] Give reported inhibition for Cc1n[nH]c2ccnc(Nc3ccc4ncsc4c3)c12 (Mitogen-activated protein kinase 1 (Homo sapiens))
[reply] 24

[ask] Fill in: inhibition on Mitogen-activated protein kinase 1 (Homo sapiens), entry Cc1n[nH]c2ccnc(OC3CCCCC3)c12
[reply] 66

====

target: Casein kinase I (Homo sapiens) (UniProt Q9HCP0+P78368+P48730+P49674+P48729); experiment: Inhibition of CK1 (unknown origin) at 10 uM relative to control; assay type: protein assay
Could you please report measured inhibition for the items listed next?
# number only, unit % dropped from output

[ask] Identify inhibition associated with the molecule Cc1n[nH]c2ccnc(Nc3ccc4ncsc4c3)c12
[reply] 77

[ask] State its inhibition for this molecule: Cc1n[nH]c2ccnc(Nc3ccccc3F)c12
[reply] 46

[ask] Dear colleague, please send me the reported inhibition for Cc1n[nH]c2ccnc(NC3CCCCC3)c12 when you can.
[reply] 27

[ask] Please supply the value of reported inhibition for the item Cc1n[nH]c2ccnc(OC3CCCCC3)c12
[reply] 86
